Please respond with reported pEC50 for every item in the list.
# TARGET_SYSTEM: Gal4 DNA binding domain fused to the LBD of LXRβ in HEK293 cells (Homo sapiens (Human), UniProt P55055)
# Sequence (P55055 222-460 limits assumed): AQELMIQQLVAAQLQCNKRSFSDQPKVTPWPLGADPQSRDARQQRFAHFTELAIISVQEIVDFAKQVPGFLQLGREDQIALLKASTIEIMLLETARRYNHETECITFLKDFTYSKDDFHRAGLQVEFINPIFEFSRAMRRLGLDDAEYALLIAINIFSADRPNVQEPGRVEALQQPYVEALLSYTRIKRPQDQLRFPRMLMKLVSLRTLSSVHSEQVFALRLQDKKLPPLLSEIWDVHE
# ASSAY_REMARKS: cell-based
pEC50 is defined as minus the log10 of a concentration measured in mol/L.

What does the data say about its pEC50? Entry: CC(C)[C@@H]1CN(c2ccc(CO)c(S(C)(=O)=O)c2)CCN1c1nc(C(F)(F)F)c(C(C)(C)O)o1
6.48

Please look up its pEC50: CC(C)[C@@H]1CN(c2ccc(CO)c(S(C)(=O)=O)c2)CCN1c1ncc(C(N)=O)c(C(F)(F)F)n1
7.34

Look at this compound and give its reported pEC50. CS(=O)(=O)c1cc(F)cc(N2CCN(Cc3ccc(C(F)(F)F)nc3)C(c3ccccc3)C2)c1 (stereo not drawn)
5.48

Could you share which pEC50 value was measured for C[C@@](O)(c1ccc(CN2CCN(c3cccc(S(C)(=O)=O)c3)C[C@H]2c2ccccc2)cc1)C(F)(F)F (single isomer, unassigned) ?
6.27

Param item = Cc1nc(N2CCN(c3ccc(F)c(S(C)(=O)=O)c3)C[C@H]2C(C)C)ncc1C(F)(F)F ; retrieve measured pEC50.
7.39

I would be grateful if you could share the reported pEC50 for CCOC(=O)c1cnc(N2CCN(c3ccc(F)c(S(C)(=O)=O)c3)CC2CC(F)(F)F)nc1C (stereo not drawn) .
6.72

Find the recorded pEC50 belonging to CS(=O)(=O)c1cccc(N2CCN(Cc3ccc(C(F)(F)F)cc3)[C@@H](c3ccc(F)cc3)C2)c1 and report it.
6.20

Any idea what pEC50 was measured for CC(C)[C@@H]1CN(c2ccc(F)c(S(C)(=O)=O)c2)CCN1c1ncc(CN(C)C)c(C(F)(F)F)n1 ?
7.13

What pEC50 value was documented for this compound, CCOC(=O)c1cnc(N2CCN(c3ccc(F)c(S(C)(=O)=O)c3)C[C@H]2C(C)C)nc1C ?
6.75

Fill blank: measured pEC50 of the compound CC(C)[C@@H]1CN(c2ccc(F)c(S(C)(=O)=O)c2)CCN1c1ncc(C(F)(F)F)c(C(N)=O)n1 is ____.
6.32

====

# TARGET_SYSTEM: Gal4 DNA binding domain fused to the LBD of LXRβ in HEK293 cells (Homo sapiens (Human))
# ASSAY_REMARKS: cell-based
# Type: cell-based
REPORTED_ENDPOINT: IC50 (nM)
Number in nM, nothing else.

Fill in the blank: the reported IC50 of Cc1ccc(CN2CCN(c3cccc(S(C)(=O)=O)c3)C[C@@H]2c2ccccc2)cc1 (single isomer, unassigned) [46-6] is ____.
148

Please give the measured IC50 for this molecule: CS(=O)(=O)c1cccc(N2CCN(Cc3ccc(C(F)(F)F)c(F)c3)[C@@H](c3ccccc3)C2)c1 (single isomer, unassigned) [46-26]
6800

Which IC50 value belongs to CC(C)[C@@H]1CN(c2ccc(F)c(S(C)(=O)=O)c2)CCN1c1ncc(C(=O)N(C)CCCO)c(C(F)(F)F)n1 [17-11] ?
875

Please report the recorded IC50 for C[C@]1(c2ccccc2)CN(c2cccc(S(C)(=O)=O)c2)CCN1Cc1ccc(C(F)(F)F)cc1 (single isomer, unassigned) [46-21] .
537

Item CC(C)[C@@H]1CN(c2ccc(F)c(S(C)(=O)=O)c2)CCN1c1nccc(OCC(F)(F)F)n1 [44-3] has what recorded IC50?
91

// query IC50 value for entry CC(C)[C@@H]1CN(c2cccc(S(C)(=O)=O)c2)CCN1C(=O)OC(C)(C)C [1-1]
2000

Can you share its IC50? I mean this molecule: CCOC(=O)CN(C)C(=O)c1cnc(N2CCN(c3ccc(F)c(S(C)(=O)=O)c3)C[C@H]2C(C)C)nc1C(F)(F)F [17-16]
361

# IC50 lookup, item Cc1ccc(C2CC2)nc1N1CCN(c2cccc(S(C)(=O)=O)c2)C[C@H]1C(C)C [40-3]
288

I'd like to know its IC50. The molecule in question is CC(C)[C@@H]1CN(c2ccc(F)c(S(C)(=O)=O)c2)CCN1c1ncc(C(N)=O)c(C(F)(F)F)n1 [Cpd No 17-2]
439

Reported IC50 for CC(C)[C@@H]1CN(c2ccc(F)c(S(C)(=O)=O)c2)CCN1c1ncc(C(=O)N(C)CCC(C)(C)O)c(C(F)(F)F)n1 [17-17] : what is it?
684

May I ask what IC50 has been recorded for CC(C)[C@@H]1CN(c2cc(F)c(CO)c(S(C)(=O)=O)c2)CCN1c1ncc(CO)c(C(F)(F)F)n1 [Cpd No 11-6] ?
1360

Which value of IC50 has been reported for CCCCN(C)C(=O)c1cnc(N2CCN(c3ccc(F)c(S(C)(=O)=O)c3)C[C@H]2C(C)C)nc1C(F)(F)F [17-10] in the records?
100

IC50 for CC(C)[C@@H]1CN(c2ccc(F)c(S(C)(=O)=O)c2Cl)CCN1c1ncc(Cl)c(C2CC2)n1 [Cpd No 22-2] ?
2140

Reported IC50 for CC(C)[C@@H]1CN(c2ccc(F)c(S(C)(=O)=O)c2)CCN1c1ncc(CN(C)C)c(C(F)(F)F)n1 [15-3] : what is it?
900

Field request: IC50 | item: CC(C)[C@@H]1CN(c2ccc(F)c(S(C)(=O)=O)c2)CCN1c1ncc(CN2CCOCC2)c(C(F)(F)F)n1 [Cpd No 15-5]
221

Fill in the blank: the reported IC50 of CC(C)[C@@H]1CN(c2ccc(F)c(S(C)(=O)=O)c2)CCN1c1ncc(C(=O)N(C)C)c(C(F)(F)F)n1 [Cpd No 17-1] is ____.
667

// lookup IC50 for CC(C)[C@@H]1CN(c2ccc(F)c(S(C)(=O)=O)c2)CCN1c1ncc(CN2CC(O)C2)c(C(F)(F)F)n1 [15-4]
1440

What value of IC50 has been reported for the following molecule? C[C@]1(c2ccccc2)CN(c2cccc(S(C)(=O)=O)c2)CCN1Cc1ccc(C(F)(F)F)c(Cl)c1 (single isomer, unassigned) [46-34]
688

// returns reported IC50 for input CC(C)[C@@H]1CN(c2ccc(F)c(S(C)(=O)=O)c2)CCN1c1ncc(CN(C)C(C)(C)C)c(C(F)(F)F)n1 [15-6]
1320

Give its IC50 value. Item: CS(=O)(=O)c1cccc(N2CCN(Cc3ccc(C(F)(F)F)cc3)[C@@H](c3ccc(F)cc3)C2)c1 [46-24]
5820

Give the measured IC50 of CC(C)(O)[C@@H]1CN(c2cccc(S(C)(=O)=O)c2)CCN1c1nccc(C(F)(F)F)n1 [7-24] .
9

Return reported IC50; argument: Cc1ccc(N2CCN(c3cccc(S(C)(=O)=O)c3)C[C@H]2C(C)C)nc1C1CC1 [40-2]
146

Form field: reported IC50 of CC(C)[C@@H]1CN(c2cccc(S(C)(=O)=O)c2)CCN1c1nccc(OC(F)F)n1 [44-2]
177

// returns reported IC50 for input CNS(=O)(=O)c1cc(N2CCN(c3ncc(C(C)(C)O)c(C(F)(F)F)n3)[C@H](C(C)C)C2)ccc1F [10-3]
242

Give its IC50 value. Item: CC(O)c1cnc(N2CCN(c3ccc(F)c(S(C)(=O)=O)c3)C[C@H]2C(C)C)nc1C(F)(F)F (mixture of isomers) [Cpd No 12-1]
252

What value of measured IC50 is listed for CC(C)[C@@H]1CN(c2ccc(F)c(S(C)(=O)=O)c2)CCN1c1ncc(Cc2ccc(C(C)(C)O)cc2)c(C(F)(F)F)n1 [Cpd No 31-1] ?
115

Can you share its IC50? I mean this molecule: CC(C)[C@@H]1CN(c2ccc(F)c(S(C)(=O)=O)c2)CCN1c1ncc(CNS(C)(=O)=O)c(C(F)(F)F)n1 [15-7]
1770

Report IC50 for CCOC(=O)CCN(C)C(=O)c1cnc(N2CCN(c3ccc(F)c(S(C)(=O)=O)c3)C[C@H]2C(C)C)nc1C(F)(F)F [17-18] please.
186

Data request, read-out IC50, for CC(C)[C@@H]1CN(c2ccc(CO)c(S(C)(=O)=O)c2)CCN1c1ncc(C(N)=O)c(C(F)(F)F)n1 [Cpd No 17-25]
359

====

# TARGET_SYSTEM: LXR β LBD protein (Homo sapiens (Human))
# ASSAY_REMARKS: biochemical
# Format: biochemical
# MEASUREMENT_CONTEXT: agonist mode; read-out: FRET LXRβ EC50
REPORTED_ENDPOINT: EC50 (nM)
Only the number, expressed in nM, is required.

Hello, I am looking for reported EC50 with LXR β LBD protein (Homo sapiens (Human)) for NS(=O)(=O)c1cccc(N2CCN(C[C@H]3CC[C@H](C(F)(F)F)CC3)[C@@H](c3ccccc3)C2)c1 (single isomer, unassigned) . Could you help?
1290

Quick check: EC50 on LXR β LBD protein (Homo sapiens (Human)), item CS(=O)(=O)c1cccc(N2CCN(C[C@H]3CC[C@H](C(F)(F)F)CC3)[C@H](c3ccccc3)C2)c1 (single isomer, unassigned) ?
3800

Query the reported EC50 for LXR β LBD protein (Homo sapiens (Human)); item: CS(=O)(=O)c1cc(N2CCN(C[C@H]3CC[C@H](C(F)(F)F)CC3)[C@@H](c3ccccc3)C2)ccc1C(N)=O (single isomer, unassigned)
355

Give LXR β LBD protein (Homo sapiens (Human)) EC50 for CC(C)[C@@H]1CN(c2cccc(S(C)(=O)=O)c2)CCN1C(=O)OC(C)(C)C
15

What measured EC50 is associated with NS(=O)(=O)c1cccc(N2CCN(C[C@H]3CC[C@@H](C(F)(F)F)CC3)[C@H](c3ccccc3)C2)c1 (single isomer, unassigned) on LXR β LBD protein (Homo sapiens (Human))?
704

Param readout = EC50; param system = LXR β LBD protein (Homo sapiens (Human)); param query = CC(C)[C@@H]1CN(c2ccc(F)c(S(C)(=O)=O)c2)CCN1C(=O)OC(C)(C)C ; response: value
56
